target: FOXO1 FKH wt (UniProt Q12778 151-265); experiment: EMSA
experimental_readout: Kd (nM)

- dsDBE2 (dsDNA) DNA 1: TAAGCTAGTCTTGTTTACATTTTGCTAGCAAT DNA 2: ATTGCTAGCAAAATGTAAACAAGACTAGCTTA: 90
